src = paper PMC12910498

Assay: Phase I metabolic stability in human liver microsomes (with NADPH)
Type: in vitro ADME
Conditions: pH 7.4, presence of NADPH, mean ± SD, n = 3
Description: We evaluated the Phase I metabolic stability of compounds 2−7 and 14−19 using rat and human liver microsomes, as previously described.[45] Phase I metabolic stability assays were conducted using rat and human liver microsomes as previously described[45],[70] with minor modifications. […] Negative controls without cofactors were assessed to determine the non-CYP-mediated metabolism. Compound disappearance was monitored over time using a liquid chromatography and tandem mass spectrometry (LC/MS) method. […]
# note: boundary value 40 min maps to F; half-life below it maps to T

{"molecule-smiles": "Cc1cccc(-n2cc(CN3CCN(c4ccc(Cl)cn4)CC3)nn2)c1", "classification": "F"}
{"molecule-smiles": "Cc1cccc(NC(=O)CN2CCN(c3ccccn3)CC2)c1", "classification": "F"}
{"molecule-smiles": "Cc1cccc(NC(=O)CN2CCC(c3ccccc3)CC2)c1", "classification": "T"}
{"molecule-smiles": "Cc1cccc(NC(=O)CN2CCN(c3ccc(Cl)cn3)CC2)c1", "classification": "F"}

API: the following record is the query input.
Data request: Quick check: does Cc1cccc(-n2cc(CN3CCN(c4ccccn4)CC3)nn2)c1 have half-life under 40 min?
Data returned: F

----------
experiment: Pharmacokinetics study in rats (plasma and brain); type: in vivo, Sprague−Dawley rats; settings: Sprague-Dawley; rat, 5 mg/kg IP, plasma
observed-property: Cmax (µM)
Just the number please, in µM, no unit attached.

The cases that follow already have their Cmax on record.
{"compound": "Cc1cccc(-n2cc(CN3CCN(c4ccc(Cl)cn4)CC3)nn2)c1 [Compound 17]", "uom": "µM", "Cmax": 10}
{"compound": "Cc1cccc(-n2cc(CN3CCC(c4ccccc4)CC3)nn2)c1 [Compound 14]", "uom": "µM", "Cmax": 2.89}

Let's switch to this compound now.
Data request: Which Cmax is listed for Cc1cccc(-n2cc(CN3CCN(c4ccccn4)CC3)nn2)c1 [Compound 15] ?
Data returned: 3.28

----------
experiment: Pharmacokinetics study in rats (plasma and brain); format: in vivo, Sprague−Dawley rats; conditions: Sprague-Dawley; rat, 10 mg/kg IP, plasma
observed-property: AUC (µM·h)
Just the number please, in µM·h, no unit attached.

Data request: Which AUC is listed for Cc1cccc(-n2cc(CN3CCN(c4cccc5ccccc45)CC3)nn2)c1 ?
Data returned: 1.36

----------
target: D5 (Homo sapiens); construct: Psychoactive Drug Screening Program (PDSP); test: PDSP primary screen, D5; type: binding; conditions: 10 µM compound
Sequence (P21918 whole entry): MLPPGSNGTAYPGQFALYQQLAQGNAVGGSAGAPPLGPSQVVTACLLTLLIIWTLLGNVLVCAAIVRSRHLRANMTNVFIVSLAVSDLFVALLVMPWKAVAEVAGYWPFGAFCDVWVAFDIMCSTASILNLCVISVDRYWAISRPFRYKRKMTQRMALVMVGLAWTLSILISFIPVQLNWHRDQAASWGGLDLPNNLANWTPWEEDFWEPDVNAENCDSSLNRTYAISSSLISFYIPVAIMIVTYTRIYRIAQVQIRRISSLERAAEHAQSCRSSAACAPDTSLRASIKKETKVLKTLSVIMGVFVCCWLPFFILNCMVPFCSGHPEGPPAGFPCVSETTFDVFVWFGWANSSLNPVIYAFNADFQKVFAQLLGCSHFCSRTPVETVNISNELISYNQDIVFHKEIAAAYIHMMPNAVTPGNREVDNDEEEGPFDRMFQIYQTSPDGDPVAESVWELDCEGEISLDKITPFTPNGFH
Overview of recorded inhibition at 10 µM for various compounds
Just the number please, in %, no unit attached.

{"molecule-smiles": "Cc1cccc(-n2cc(CN3CCN(c4cccc5ccccc45)CC3)nn2)c1", "uom": "%", "inhibition at 10 µM": 25.7}
{"molecule-smiles": "Cc1cccc(-n2cc(CN3CCN(c4ccccn4)CC3)nn2)c1", "uom": "%", "inhibition at 10 µM": 1.76}
{"molecule-smiles": "Cc1cccc(-n2cc(CN3CCC(c4ccccc4)CC3)nn2)c1", "uom": "%", "inhibition at 10 µM": 16}

Let's switch to this compound now.
Data request: Look up inhibition at 10 µM with D5 (Homo sapiens) for this compound: Cc1cccc(-n2cc(CN3CCN(c4ccc(Cl)cn4)CC3)nn2)c1
Data returned: 6.22
